- System: 293T-HRE-GFP-luc cells
- experimental protocol: Cell-based reporter assay for IC50 determinations
- experimental context: hypoxia 6 hrs (1% O2), luminescence, read-out: IC50 Classification
pIC50: −log10 of the molar value. Where a name gives a salt, the structure may show the parent alone.

molecule: Cc1nc(-c2nc(-c3ccc(OC(F)(F)F)cc3)no2)nn1Cc1ccnc(NCCN2CCCC2)c1
assayed system: 293T-HRE-GFP-luc cells
pIC50: 5.00 to 6.00
//
molecule: Cc1nc(-c2nc(-c3ccc(OC(F)(F)F)cc3)no2)nn1Cc1cccc(C(=O)N(C)C)c1
assayed system: 293T-HRE-GFP-luc cells
pIC50: > 7.00
//
molecule: Cc1nc(-c2nc(-c3ccc(OC(F)(F)F)cc3)cs2)nn1Cc1cccc(S(C)(=O)=O)c1
assayed system: 293T-HRE-GFP-luc cells
pIC50: 6.00 to 7.00
//
molecule: Cc1nc(-c2nc(-c3ccc(OC(F)(F)F)cc3)no2)nn1Cc1cccc(OCCCS(C)(=O)=O)c1
assayed system: 293T-HRE-GFP-luc cells
pIC50: > 7.00
//
molecule: Cc1nc(-c2nc(-c3ccc(OC(F)(F)F)cc3)no2)nn1Cc1cccc(N2CCN(S(C)(=O)=O)CC2)c1
assayed system: 293T-HRE-GFP-luc cells
pIC50: > 7.00
//
molecule: Cc1nc(-c2nc(-c3ccc(OC(F)(F)F)cc3)no2)nn1Cc1cccc(OC(C)C)c1
assayed system: 293T-HRE-GFP-luc cells
pIC50: > 7.00
//
molecule: Cc1nc(-c2nc(-c3ccc(OC(F)(F)F)cc3)no2)nn1Cc1ccnc(N2CCCC2)n1
assayed system: 293T-HRE-GFP-luc cells
pIC50: 6.00 to 7.00
//
molecule: CNc1cc(Cn2nc(-c3nc(-c4ccc(OC(F)(F)F)cc4)no3)nc2C)ccn1
assayed system: 293T-HRE-GFP-luc cells
pIC50: > 7.00
//
molecule: Cc1nc(-c2nc(-c3ccc(OC(F)(F)F)cc3)no2)nn1Cc1ccc(=O)n(CC(C)C)c1 [Example 77a]
assayed system: 293T-HRE-GFP-luc cells
pIC50: > 7.00
//
molecule: Cc1nc(-c2nc(-c3ccc(OC(F)(F)F)cc3)no2)nn1Cc1cccc(C(=O)NC(C)C)c1
assayed system: 293T-HRE-GFP-luc cells
pIC50: > 7.00
//
molecule: Cc1nc(-c2nc(-c3ccc(OC(F)(F)F)cc3)no2)nn1Cc1cccc(S(=O)(=O)NCC(N)=O)c1
assayed system: 293T-HRE-GFP-luc cells
pIC50: 6.00 to 7.00
//
molecule: Cc1nc(-c2nnc(-c3ccc(OC(F)(F)F)cc3)o2)nn1Cc1cccc(N2CCN(C)CC2)c1 [Example 6, trifluoroacetate]
assayed system: 293T-HRE-GFP-luc cells
pIC50: > 7.00
//
molecule: Cc1nc(-c2nc(-c3ccc(OC(F)(F)F)cc3)no2)nn1Cc1cccc(S(C)(=O)=O)c1
assayed system: 293T-HRE-GFP-luc cells
pIC50: > 7.00
//
molecule: COCCOc1cccc(Cn2nc(-c3nc(-c4ccc(OC(F)(F)F)cc4)no3)nc2C)c1
assayed system: 293T-HRE-GFP-luc cells
pIC50: > 7.00
//
molecule: Cc1nc(-c2nc(-c3ccc(OC(F)(F)F)cc3)no2)nn1Cc1cccc(N2CCOCC2)c1
assayed system: 293T-HRE-GFP-luc cells
pIC50: > 7.00

----------
Below: a set of entries, each annotated with reported IC50.
- Tested on: 293T-HRE-GFP-luc cells
- experimental protocol: Cell-based reporter assay for IC50 determinations
- experimental context: hypoxia 6 hrs (1% O2), luminescence, read-out: IC50 Classification
Where a name gives a salt, the structure may show the parent alone.
property: IC50

compound: Cc1nc(-c2nc(-c3ccc(OC(F)(F)F)cc3)no2)nn1Cc1cccc(C(=O)NCCO)c1
assayed system: 293T-HRE-GFP-luc cells
result: 100 to 1000 nM

compound: COC(=O)c1cccc(Cn2nc(-c3nc(-c4ccc(OC(F)(F)F)cc4)cs3)nc2C)c1
assayed system: 293T-HRE-GFP-luc cells
result: 100 to 1000 nM

compound: Cc1nc(-c2nc(-c3ccc(OC(F)(F)F)cc3)no2)nn1Cc1cccc(C(=O)N2CCN(C)CC2)c1
assayed system: 293T-HRE-GFP-luc cells
result: < 100 nM

compound: Cc1nc(-c2nc(-c3ccc(OC(F)(F)F)cc3)no2)nn1Cc1cc(=O)n2ccsc2n1
assayed system: 293T-HRE-GFP-luc cells
result: 100 to 1000 nM

compound: COCCCNC(=O)c1ccc(Cn2nc(-c3nc(-c4ccc(OC(F)(F)F)cc4)no3)nc2C)cc1
assayed system: 293T-HRE-GFP-luc cells
result: 100 to 1000 nM

compound: Cc1nc(-c2nc(-c3ccc(OC(F)(F)F)cc3)no2)nn1Cc1cnc(N2CCOCC2)s1
assayed system: 293T-HRE-GFP-luc cells
result: 1000 to 10000 nM

compound: Cc1nc(-c2nc(-c3ccc(OC(F)(F)F)cc3)no2)nn1Cc1cccc(N)c1
assayed system: 293T-HRE-GFP-luc cells
result: < 100 nM

compound: Cc1nc(-c2cc(-c3ccc(OC(F)(F)F)cc3)on2)nn1Cc1cccc(N2CCC(S(C)(=O)=O)CC2)c1
assayed system: 293T-HRE-GFP-luc cells
result: < 100 nM

compound: Cc1nc(-c2nc(-c3ccc(OC(F)(F)F)cc3)no2)nn1Cc1cccc(OC2CCOCC2)c1
assayed system: 293T-HRE-GFP-luc cells
result: < 100 nM

compound: Cc1nc(-c2nc(-c3ccc(OC(F)(F)F)cc3)no2)nn1Cc1cccc(S(N)(=O)=O)c1
assayed system: 293T-HRE-GFP-luc cells
result: 100 to 1000 nM

compound: COc1cc(Cn2nc(-c3nc(-c4ccc(OC(F)(F)F)cc4)no3)nc2C)ccn1
assayed system: 293T-HRE-GFP-luc cells
result: 100 to 1000 nM

compound: Cc1ccc(-c2noc(-c3nc(C)n(Cc4ccnc(N5CCN(C)CC5)c4)n3)n2)cc1 [Example 22, bis-trifluoroacetate]
assayed system: 293T-HRE-GFP-luc cells
result: 100 to 1000 nM

compound: Cc1nc(-c2nc(-c3ccc(OC(F)(F)F)cc3)cs2)nn1Cc1cccc(O)c1
assayed system: 293T-HRE-GFP-luc cells
result: 100 to 1000 nM

compound: Cc1nc(-c2nnc(-c3ccc(OC(F)(F)F)cc3)o2)nn1Cc1ccnc(N2CCN(C)CC2)c1 [Example 7, trifluoroacetate]
assayed system: 293T-HRE-GFP-luc cells
result: 100 to 1000 nM

compound: Cc1nc(-c2nc(-c3ccc(OC(F)(F)F)cc3)no2)nn1Cc1ccn(CC(C)C)c(=O)c1 [Example 76a]
assayed system: 293T-HRE-GFP-luc cells
result: 100 to 1000 nM

----------
- Tested on: 293T-HRE-GFP-luc cells
- experimental protocol: Cell-based reporter assay for IC50 determinations
- experimental context: hypoxia 6 hrs (1% O2), luminescence, read-out: IC50 Classification
Structures can show the parent of a compound that is named as a salt.
Below: a set of entries, each annotated with reported IC50.

compound: Cc1nc(-c2nc(-c3ccc(OC(F)(F)F)cc3)no2)nn1Cc1cccc(O)c1 [Example 59]
IC50: 100 to 1000 nM
--
compound: Cc1nc(-c2nc(-c3ccc(OC(F)(F)F)cc3)no2)nn1Cc1ccnc(Cl)n1 [Example 19]
IC50: 1000 to 10000 nM
--
compound: COCCCNc1cc(Cn2nc(-c3nc(-c4ccc(OC(F)(F)F)cc4)no3)nc2C)ccn1 [Example 32]
IC50: < 100 nM
--
compound: Cc1nc(-c2nc(-c3ccc(OC(F)(F)F)cc3)no2)nn1Cc1ccnc(N2CCCC2)c1 [Example 28]
IC50: < 100 nM
--
compound: Cc1nc(-c2cc(-c3ccc(OC(F)(F)F)cc3)on2)nn1Cc1ccnc(N2CCN(C)CC2)c1 [Example 163]
IC50: < 100 nM
--
compound: Cc1nc(-c2nc(-c3ccc(OC(F)(F)F)cc3)cs2)nn1Cc1ccnc(N2CCN(C)CC2)c1 [Example 87]
IC50: < 100 nM
--
compound: CCc1nc(-c2nc(-c3ccc(OC(F)(F)F)cc3)no2)nn1Cc1ccccc1 [Example 33]
IC50: 1000 to 10000 nM
--
compound: Cc1nc(-c2nnc(-c3ccc(C(C)(C)C)cc3)o2)nn1Cc1cccc(N2CCOCC2)c1 [Example 98]
IC50: < 100 nM
--
compound: Cc1nc(-c2nc(-c3ccc(OC(F)(F)F)cc3)no2)nn1Cc1cccc(N2CCC(C#N)CC2)c1 [Example 51]
IC50: < 100 nM
--
compound: Cc1nc(-c2nc(-c3ccc(OC(F)(F)F)cc3)no2)nn1Cc1cnc(Cl)s1 [Example 17]
IC50: 1000 to 10000 nM
--
compound: Cc1nc(-c2nc(-c3ccc(OC(F)(F)F)cc3)no2)nn1Cc1cccc(NCCN(C)C)c1 [Example 11, trifluoroacetate]
IC50: 1000 to 10000 nM
--
compound: Cc1nc(-c2nc(-c3ccc(OC(F)(F)F)cc3)no2)nn1Cc1cccc(OC2COC2)c1 [Example 68]
IC50: < 100 nM
--
compound: COC(C)(C)CCOc1cccc(Cn2nc(-c3nc(-c4ccc(OC(F)(F)F)cc4)no3)nc2C)c1 [Example 72]
IC50: < 100 nM
--
compound: Cc1nc(-c2nc(-c3ccc(OC(F)(F)F)cc3)no2)nn1Cc1cccc(C(O)CO)c1 (stereo not shown) [Example 85]
IC50: < 100 nM
--
compound: COC(=O)CNS(=O)(=O)c1cccc(Cn2nc(-c3nc(-c4ccc(OC(F)(F)F)cc4)no3)nc2C)c1 [Example 134]
IC50: < 100 nM
--
compound: Cc1nc(-c2nc(-c3ccc(OC(F)(F)F)cc3)no2)nn1Cc1cccc(OCCCO)c1 [Example 71]
IC50: < 100 nM
